These measurements were taken from ChEMBL document CHEMBL1201862.

# Tested on: 786-0
# assayDetails: NCI tumour cell line growth inhibition, 48 h
The source made the active and inactive calls. No stated cut-off is given here; in the data, active = GI50 up to about 1.1 µM and inactive = higher.
Quick reference for GI50 among some compounds
propertyName: GI50

[[record]]
compound = "COC(=O)C1=C(OC(=O)/C(=C/c2c(F)cccc2F)c2ccccc2)C(C(=O)OC)[C@@]2(O)[C@@H](C(=O)OC)[C@H](C)C[C@@H]1[C@@H]2C(=O)OC (stereo not given in full)"
result = "> 100 µM (inactive)"

[[record]]
compound = "Oc1ccncc1-c1cnccc1O"
result = "> 100 µM (inactive)"

[[record]]
compound = "CC(NCCN(C)C)C1CCC2C3CCc4cc(O)ccc4C3CCC12C (stereo not given)"
result = "1.83 µM (inactive)"

[[record]]
compound = "CC(=O)NC1C(=O)CC(c2ccccc2)N(C)C1c1ccccc1 (stereo not given)"
result = "> 100 µM (inactive)"

[[record]]
compound = "CC(=O)[C@]1(C)[C@H](C)O[C@](C)(CO)[C@H]1O[Si](C)(C)c1ccccc1"
result = "81.5 µM (inactive)"

[[record]]
compound = "CN(C)/C(=N\\C#N)NCc1ccccc1"
result = "> 100 µM (inactive)"

[[record]]
compound = "CN[C@@H](C)[C@H](NC)c1ccccc1"
result = "> 100 µM (inactive)"

[[record]]
compound = "O=C(/C=C/c1ccc(Cl)c(Cl)c1)c1ccccc1Cl"
result = "5.32 µM (inactive)"

[[record]]
compound = "CCn1c(SCC(=O)NNC(=S)Nc2ccc(C)cc2)nc2ccccc2c1=O"
result = "> 100 µM (inactive)"

[[record]]
compound = "O=C(Nc1cccc2ccccc12)c1cc2ccccc2oc1=O"
result = "13.7 µM (inactive)"

